# Measured Target: ILT3 on target cells (MOLM13, OCI-AML-2, NALM-1, THP-1, MM1S, H929, U226B1 and other lines) (human) (UniProt Q8NHJ6)
# Sequence (Q8NHJ6 22-448, one chain of several): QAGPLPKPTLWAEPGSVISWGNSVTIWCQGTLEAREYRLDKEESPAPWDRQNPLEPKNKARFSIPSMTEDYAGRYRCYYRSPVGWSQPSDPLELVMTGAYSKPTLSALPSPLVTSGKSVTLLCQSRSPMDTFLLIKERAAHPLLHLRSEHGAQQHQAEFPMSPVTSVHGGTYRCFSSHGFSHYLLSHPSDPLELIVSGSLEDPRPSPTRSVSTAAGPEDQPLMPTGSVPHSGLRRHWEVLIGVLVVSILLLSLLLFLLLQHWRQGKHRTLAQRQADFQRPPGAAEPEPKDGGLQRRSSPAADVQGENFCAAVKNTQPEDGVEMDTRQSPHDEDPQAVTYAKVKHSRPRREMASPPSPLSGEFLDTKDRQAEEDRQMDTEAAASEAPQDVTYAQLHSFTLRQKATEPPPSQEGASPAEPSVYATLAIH
# Experiment Summary: cell-based or functional assay
Measured TNF-α, EC50 (nM), cytokine release in the TDCC co-culture of individual entries
Property Name: TNF-α, EC50 (nM), cytokine release in the TDCC co-culture

binder="53F10 Fab coupled with CD3 scFv 2B2 (bispecific antibody, part only; not given: CD3 scFv 2B2, V domains shown, part only) VH: EVQVVESGGGLVKPGGSLKLSCAASGFTFSDYGMHWVRQAPEKGLEWVAYISTGIITVYYADTVKGRFTMSRDNAKNTLFLQMTSLRSEDTAIYYCARADGRGAMDYWGQGTSVIVSS VL: DIQMTQTTSSLSASLGDRVTISCRASQDISNFLNWYQQKPDGTVTLLIYYTSRLHSGVPSRFSGSGSGTDYSLTISNLEQEDFATYFCQQGNTLPWTFGGGTKLEIK" unit_tag=nM experimental_result=2
binder="16C5 Fab coupled with CD3 scFv 2B2 (bispecific antibody, part only; not given: CD3 scFv 2B2, V domains shown, part only) VH: EVQLQQSGPELVKPGASVKISCKASGYTFTDYNMDWVKQSHGKSLEWIGYIYPSNGGTGYNQKFKSKATLTVDKSSNTAYMELHSLTSEDSAVYYCARVPYYDYLYYYAMDYWGQGTSVTVSS VL: QIVLSQSPAILSASPGEKVTMACRASSSVSFMHWYQQKPGSSPQPWIYATSNLASGVPARFSGSGSGTSYSLTISRVEAEDAATYYCQQWSTNPYMYTFGGGTKLEIK" unit_tag=nM experimental_result=398
binder="3A3 Fab coupled with CD3 scFv 2B2 (bispecific antibody, part only; not given: CD3 scFv 2B2, V domains shown, part only) VH: QVQLKESGPGLVAPSQSLSITCTVSGFSLTSYGVHWVRQPPGKGLEWLGVIWPGGTINYNSALMSRLSISKDNSKSQVFLKLNSLQTDDTAMYYCASDKYDGGWFAYWGQGTLVTVSA VL: DIVMTQSQKFMSTSVGDRVSITCKASQNVRTAVAWYQQKPGQSPEALIYLASNRHTGVPDRFTGSGSGTDFSLSISNVQSEDLADYFCLQHLNYPLTFGSGTKLEIK" unit_tag=nM experimental_result=79.4
binder="48A6 Fab coupled with CD3 scFv 2B2 (bispecific antibody, part only; not given: CD3 scFv 2B2, V domains shown, part only) VH: EVQLVESGGDLMKPGGSLKLSCAASGFTFSSYGMSWVRQTPDKRLEWVATISSGGTYTFYPDSVKGRFTISRDNAKNTLYLQMSSLKSEDTAMYYCARRGWLLHYYAMDYWGQGTSVTVSS VL: NIVLTQSPASLAVSLGQRATISCRPSESVDSFGNSFMHWFQQKPGQPPKLLIYLSSKLESGVPARFSGSGSRTDFTLTIDPVEADDAATYYCQQHNEDPFTFGSGTKLEIK" unit_tag=nM experimental_result=2.51
